Target system: Human Full Length PARG (Homo sapiens (Human), UniProt Q86W56)
Sequence (Q86W56 whole entry): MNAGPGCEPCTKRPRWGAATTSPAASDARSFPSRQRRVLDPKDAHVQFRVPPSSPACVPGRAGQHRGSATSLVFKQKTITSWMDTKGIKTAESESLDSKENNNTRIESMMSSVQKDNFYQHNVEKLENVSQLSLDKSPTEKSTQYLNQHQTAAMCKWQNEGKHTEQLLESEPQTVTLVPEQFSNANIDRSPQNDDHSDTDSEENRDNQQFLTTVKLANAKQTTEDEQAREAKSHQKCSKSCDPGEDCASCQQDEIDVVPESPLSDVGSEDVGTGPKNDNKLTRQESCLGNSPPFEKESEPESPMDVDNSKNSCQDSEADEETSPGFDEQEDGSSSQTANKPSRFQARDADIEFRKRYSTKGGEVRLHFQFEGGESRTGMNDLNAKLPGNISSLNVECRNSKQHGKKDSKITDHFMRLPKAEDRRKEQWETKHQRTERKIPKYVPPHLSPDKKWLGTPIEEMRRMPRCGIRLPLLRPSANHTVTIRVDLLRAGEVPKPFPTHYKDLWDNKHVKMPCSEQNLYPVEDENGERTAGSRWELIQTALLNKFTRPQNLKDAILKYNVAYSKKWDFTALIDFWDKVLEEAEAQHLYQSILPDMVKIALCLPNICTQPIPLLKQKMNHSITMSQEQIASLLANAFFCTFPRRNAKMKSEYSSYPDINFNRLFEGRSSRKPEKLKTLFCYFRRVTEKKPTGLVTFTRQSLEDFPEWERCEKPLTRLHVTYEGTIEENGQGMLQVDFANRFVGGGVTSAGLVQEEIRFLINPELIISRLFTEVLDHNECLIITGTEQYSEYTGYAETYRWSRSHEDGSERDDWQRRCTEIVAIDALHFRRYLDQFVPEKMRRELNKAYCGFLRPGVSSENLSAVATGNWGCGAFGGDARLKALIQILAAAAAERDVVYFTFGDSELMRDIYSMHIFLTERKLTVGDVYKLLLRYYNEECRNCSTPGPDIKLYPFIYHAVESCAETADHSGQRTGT
Protocol: PARG in vitro enzyme assay (TR-FRET)
Condition info: read-out: PARG_EC50_ENZYME
Listed molecules paired with reported pEC50
To interpret pEC50, take it as minus log10 of a concentration measured in moles per litre.

Worked cases, answers included:
C#CCn1c(=O)n(C)c2cc(S(=O)(=O)NC3(C)CC3)ccc21; 5.32
Cn1c(=O)n(-c2ncns2)c2cc(S(=O)(=O)NC3(C)CC3)ccc21; 6.44
Cc1nsc(-n2c(=O)n(CC#N)c3ccc(S(=O)(=O)NC4(C)CC4)cc32)n1; 5.94
Cn1c(=O)n(CCC2CC2)c2ccc(S(=O)(=O)NC3(C)CC3)cc21; 5.27
Cc1nc(C)c(Cn2c(=O)n(-c3nccs3)c3cc(S(=O)(=O)NC4(C)CC4)ccc32)s1; 6.83
Cc1nsc(-n2c(=O)n(C)c3cc(F)c(S(=O)(=O)NC4(CF)CC4)cc32)n1; 4.92
COCCn1c(=O)n(-c2nc(C)ns2)c2cc(S(=O)(=O)NC3(C)CC3)ccc21; 6.51
COc1nsc(-n2c(=O)n(Cc3sc(C)nc3C)c3ccc(S(=O)(=O)NC4(C)CC4)cc32)n1; 6.57
Cc1nnc(-n2c(=O)n(CC3CCCN(C)C3)c3ccc(S(=O)(=O)NC4(C)CC4)cc32)o1 (stereo not drawn); 5.94
Cn1c(=O)n(CC2CC2(F)F)c2ccc(S(=O)(=O)NC3(C)CC3)cc21 (stereo not drawn); 5.08

Req: Provide only the value of recorded pEC50 for Cn1c(=O)n(Cc2cccc(F)c2)c2ccc(S(=O)(=O)NC3(C)CC3)cc21
Resp: 5.24

Req: Specify reported pEC50 for the molecule shown: Cc1nnc(-n2c(=O)n(CCC(N)=O)c3ccc(S(=O)(=O)NC4(C)CC4)cc32)o1
Resp: 5.94

Req: Supply measured pEC50 of Cc1nnc(-n2ccc3ccc(S(=O)(=O)NC4(C)CC4)cc32)s1 in your reply.
Resp: 5.63
